Target: kynurenin-3-hydroxylase (Rattus norvegicus)
Construct: The enzyme source is a crude rat kidney mitochondrial preparation; from tissue; host or cells: rat kidney, crude mitochondrial preparation
Sequence (O88867 whole entry): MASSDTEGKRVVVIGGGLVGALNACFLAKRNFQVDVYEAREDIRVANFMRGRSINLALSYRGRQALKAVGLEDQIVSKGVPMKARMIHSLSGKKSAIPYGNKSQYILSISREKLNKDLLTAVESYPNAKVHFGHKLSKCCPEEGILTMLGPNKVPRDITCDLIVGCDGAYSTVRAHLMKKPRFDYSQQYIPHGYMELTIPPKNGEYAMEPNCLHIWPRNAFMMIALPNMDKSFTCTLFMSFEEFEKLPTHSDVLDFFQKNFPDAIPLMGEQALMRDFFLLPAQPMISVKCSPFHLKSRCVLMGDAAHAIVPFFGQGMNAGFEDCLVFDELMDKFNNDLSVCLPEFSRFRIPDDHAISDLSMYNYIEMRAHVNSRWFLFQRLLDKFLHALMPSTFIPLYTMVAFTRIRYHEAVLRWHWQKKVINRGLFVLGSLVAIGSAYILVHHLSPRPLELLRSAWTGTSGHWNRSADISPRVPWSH
Assay: ex vivo kynurenin-3-hydroxylase inhibition in the liver after oral administration to rats
Conditions: 30 μM/kg p.o., 2 hours
Each record here notes measured % of control 30 μM/kg p.o in the liver.
Just the number please, in %, no unit attached.

Known % of control 30 μM/kg p.o in the liver results, listed for orientation:
1. COc1ccc(S(=O)(=O)Nc2nc(-c3cccc([N+](=O)[O-])c3)cs2)cc1 | 23.00
2. Cc1ccc(S(=O)(=O)Nc2nc(-c3cccc([N+](=O)[O-])c3)cs2)cc1 | 43.00
3. COc1ccc(S(=O)(=O)Nc2nc(-c3cccc([N+](=O)[O-])c3)cs2)cc1OC | 10.00

Q: Tell me its % of control 30 μM/kg p.o in the liver given `COc1ccc(-c2csc(NS(=O)(=O)c3ccc(C)cc3)n2)cc1OC` as the entry.
Ans: 54.00

Q: Tell me its % of control 30 μM/kg p.o in the liver given `O=[N+]([O-])c1cccc(-c2csc(NS(=O)(=O)c3ccc4ccccc4c3)n2)c1` as the entry.
Ans: 20.00
